# CONDITION_DETAILS: 327.66 K; 101.33 kPa; Liquid; Vibrating tube method
MEASURED_ATTRIBUTE: mass density (kg/m3)

CCCC(=O)[O-].C[NH2+]CCO [N-methyl-2-hydroxyethylammonium butanoate]: 1019.12
C[NH2+]CCO.O=C[O-] [2-hydroxy-N-methylethanaminium formate]: 1111.87
CCC(=O)[O-].C[NH2+]CCO [2-hydroxy-N-methylethanaminium propionate]: 1051.78
CCCCC(=O)[O-].C[NH2+]CCO [2-hydroxy-N-methylethanaminium pentanoate]: 996.103
CC(C)C(=O)[O-].C[NH2+]CCO [2-hydroxy-N-methylethanaminium isobutyrate]: 1024.01
CC(=O)[O-].C[NH2+]CCO [N-methyl-2-hydroxyethylammonium acetate]: 1082.81

###

# CONDITION_DETAILS: 286.4 K; 101.33 kPa; Liquid; Vibrating tube method
MEASURED_ATTRIBUTE: mass density (kg/m3)

CCCC(=O)[O-].C[NH2+]CCO [N-methyl-2-hydroxyethylammonium butanoate]: 1047.18
C[NH2+]CCO.O=C[O-] [2-hydroxy-N-methylethanaminium formate]: 1134.81
CCCCC(=O)[O-].C[NH2+]CCO [2-hydroxy-N-methylethanaminium pentanoate]: 1024.16
CCC(=O)[O-].C[NH2+]CCO [2-hydroxy-N-methylethanaminium propionate]: 1078.93
CC(=O)[O-].C[NH2+]CCO [N-methyl-2-hydroxyethylammonium acetate]: 1107.86
CC(C)C(=O)[O-].C[NH2+]CCO [2-hydroxy-N-methylethanaminium isobutyrate]: 1050.82

###

# CONDITION_DETAILS: 307.9 K; 101.33 kPa; Liquid; Vibrating tube method
MEASURED_ATTRIBUTE: mass density (kg/m3)

C[NH2+]CCO.O=C[O-] [2-hydroxy-N-methylethanaminium formate]: 1122.8
CC(C)C(=O)[O-].C[NH2+]CCO [2-hydroxy-N-methylethanaminium isobutyrate]: 1037.09
CCCC(=O)[O-].C[NH2+]CCO [N-methyl-2-hydroxyethylammonium butanoate]: 1032.7
CCCCC(=O)[O-].C[NH2+]CCO [2-hydroxy-N-methylethanaminium pentanoate]: 1009.68
CC(=O)[O-].C[NH2+]CCO [N-methyl-2-hydroxyethylammonium acetate]: 1094.98
CCC(=O)[O-].C[NH2+]CCO [2-hydroxy-N-methylethanaminium propionate]: 1064.95

###

# CONDITION_DETAILS: 325.16 K; 101.33 kPa; Liquid; Vibrating tube method
MEASURED_ATTRIBUTE: mass density (kg/m3)

C[NH2+]CCO.O=C[O-] [2-hydroxy-N-methylethanaminium formate]: 1113.24
CCC(=O)[O-].C[NH2+]CCO [2-hydroxy-N-methylethanaminium propionate]: 1053.47
CCCC(=O)[O-].C[NH2+]CCO [N-methyl-2-hydroxyethylammonium butanoate]: 1020.87
CCCCC(=O)[O-].C[NH2+]CCO [2-hydroxy-N-methylethanaminium pentanoate]: 997.846
CC(=O)[O-].C[NH2+]CCO [N-methyl-2-hydroxyethylammonium acetate]: 1084.37
CC(C)C(=O)[O-].C[NH2+]CCO [2-hydroxy-N-methylethanaminium isobutyrate]: 1025.69

###

# CONDITION_DETAILS: 293.15 K; 101.33 kPa; Liquid; Pulse-echo method
MEASURED_ATTRIBUTE: speed of sound (m/s)

CCCCC(=O)[O-].C[NH2+]CCO [2-hydroxy-N-methylethanaminium pentanoate]: 1564.7
C[NH2+]CCO.O=C[O-] [2-hydroxy-N-methylethanaminium formate]: 1825.1
CCC(=O)[O-].C[NH2+]CCO [2-hydroxy-N-methylethanaminium propionate]: 1704.9
CCCC(=O)[O-].C[NH2+]CCO [N-methyl-2-hydroxyethylammonium butanoate]: 1630.6
CC(C)C(=O)[O-].C[NH2+]CCO [2-hydroxy-N-methylethanaminium isobutyrate]: 1625.5

###

# CONDITION_DETAILS: 330.16 K; 101.33 kPa; Liquid; Pulse-echo method
MEASURED_ATTRIBUTE: speed of sound (m/s)

CCCC(=O)[O-].C[NH2+]CCO [N-methyl-2-hydroxyethylammonium butanoate]: 1514.3
CC(C)C(=O)[O-].C[NH2+]CCO [2-hydroxy-N-methylethanaminium isobutyrate]: 1520.6
CCC(=O)[O-].C[NH2+]CCO [2-hydroxy-N-methylethanaminium propionate]: 1594.9
CCCCC(=O)[O-].C[NH2+]CCO [2-hydroxy-N-methylethanaminium pentanoate]: 1450.1
C[NH2+]CCO.O=C[O-] [2-hydroxy-N-methylethanaminium formate]: 1753.2

###

# CONDITION_DETAILS: 303.4 K; 101.33 kPa; Liquid; Vibrating tube method
MEASURED_ATTRIBUTE: mass density (kg/m3)

CCCC(=O)[O-].C[NH2+]CCO [N-methyl-2-hydroxyethylammonium butanoate]: 1035.71
CCCCC(=O)[O-].C[NH2+]CCO [2-hydroxy-N-methylethanaminium pentanoate]: 1012.7
CC(C)C(=O)[O-].C[NH2+]CCO [2-hydroxy-N-methylethanaminium isobutyrate]: 1040
CCC(=O)[O-].C[NH2+]CCO [2-hydroxy-N-methylethanaminium propionate]: 1067.89
C[NH2+]CCO.O=C[O-] [2-hydroxy-N-methylethanaminium formate]: 1125.32
CC(=O)[O-].C[NH2+]CCO [N-methyl-2-hydroxyethylammonium acetate]: 1097.69

###

# CONDITION_DETAILS: 283.15 K; 101.33 kPa; Liquid; Vibrating tube method
MEASURED_ATTRIBUTE: mass density (kg/m3)

CCCCC(=O)[O-].C[NH2+]CCO [2-hydroxy-N-methylethanaminium pentanoate]: 1026.34
CC(=O)[O-].C[NH2+]CCO [N-methyl-2-hydroxyethylammonium acetate]: 1109.83
CC(C)C(=O)[O-].C[NH2+]CCO [2-hydroxy-N-methylethanaminium isobutyrate]: 1052.92
CCCC(=O)[O-].C[NH2+]CCO [N-methyl-2-hydroxyethylammonium butanoate]: 1049.35
CCC(=O)[O-].C[NH2+]CCO [2-hydroxy-N-methylethanaminium propionate]: 1081.05
C[NH2+]CCO.O=C[O-] [2-hydroxy-N-methylethanaminium formate]: 1136.62

###

# CONDITION_DETAILS: 320.91 K; 101.33 kPa; Liquid; Pulse-echo method
MEASURED_ATTRIBUTE: speed of sound (m/s)

CCCC(=O)[O-].C[NH2+]CCO [N-methyl-2-hydroxyethylammonium butanoate]: 1543.3
CC(C)C(=O)[O-].C[NH2+]CCO [2-hydroxy-N-methylethanaminium isobutyrate]: 1547
C[NH2+]CCO.O=C[O-] [2-hydroxy-N-methylethanaminium formate]: 1771
CCC(=O)[O-].C[NH2+]CCO [2-hydroxy-N-methylethanaminium propionate]: 1622.7
CCCCC(=O)[O-].C[NH2+]CCO [2-hydroxy-N-methylethanaminium pentanoate]: 1478.5

###

# CONDITION_DETAILS: 320.16 K; 101.33 kPa; Liquid; Vibrating tube method
MEASURED_ATTRIBUTE: mass density (kg/m3)

CCCC(=O)[O-].C[NH2+]CCO [N-methyl-2-hydroxyethylammonium butanoate]: 1024.34
C[NH2+]CCO.O=C[O-] [2-hydroxy-N-methylethanaminium formate]: 1115.99
CCCCC(=O)[O-].C[NH2+]CCO [2-hydroxy-N-methylethanaminium pentanoate]: 1001.32
CC(C)C(=O)[O-].C[NH2+]CCO [2-hydroxy-N-methylethanaminium isobutyrate]: 1029.03
CC(=O)[O-].C[NH2+]CCO [N-methyl-2-hydroxyethylammonium acetate]: 1087.48
CCC(=O)[O-].C[NH2+]CCO [2-hydroxy-N-methylethanaminium propionate]: 1056.83

###

# CONDITION_DETAILS: 291.65 K; 101.33 kPa; Liquid; Vibrating tube method
MEASURED_ATTRIBUTE: mass density (kg/m3)

CC(C)C(=O)[O-].C[NH2+]CCO [2-hydroxy-N-methylethanaminium isobutyrate]: 1047.47
CC(=O)[O-].C[NH2+]CCO [N-methyl-2-hydroxyethylammonium acetate]: 1104.67
CCCC(=O)[O-].C[NH2+]CCO [N-methyl-2-hydroxyethylammonium butanoate]: 1043.65
CCC(=O)[O-].C[NH2+]CCO [2-hydroxy-N-methylethanaminium propionate]: 1075.49
C[NH2+]CCO.O=C[O-] [2-hydroxy-N-methylethanaminium formate]: 1131.88
CCCCC(=O)[O-].C[NH2+]CCO [2-hydroxy-N-methylethanaminium pentanoate]: 1020.62

###

# CONDITION_DETAILS: 303.65 K; 101.33 kPa; Liquid; Pulse-echo method
MEASURED_ATTRIBUTE: speed of sound (m/s)

CCCC(=O)[O-].C[NH2+]CCO [N-methyl-2-hydroxyethylammonium butanoate]: 1597.1
CCCCC(=O)[O-].C[NH2+]CCO [2-hydroxy-N-methylethanaminium pentanoate]: 1531.5
CC(C)C(=O)[O-].C[NH2+]CCO [2-hydroxy-N-methylethanaminium isobutyrate]: 1595.7
CCC(=O)[O-].C[NH2+]CCO [2-hydroxy-N-methylethanaminium propionate]: 1673.7
C[NH2+]CCO.O=C[O-] [2-hydroxy-N-methylethanaminium formate]: 1804.6

Attribution: the NIST ThermoML archive (doi:10.1021/je900550v)
